- Test system: RARg:RXRa (NR concentration 270 nM, RXRa partner concentration 90 nM)
- protocol description: PBM binding z-score (relative to random genomic background probes); higher = stronger binding; sequences stand for … in GC…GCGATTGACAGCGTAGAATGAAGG
Please go through the items and note down their PBM binding z-score.
Reply: number alone, nothing else.

*Q* State the recorded PBM binding z-score for this entry: `GCGACGGGGGCATCAGCAGGTTACCATAACTTAA`
*A* 5.01

*Q* Can you share its PBM binding z-score? I mean this sequence: `CCTACAGGGCCATTCAGAGGTCATTGATCATATG`
*A* 5.34

*Q* Can you look up the measured PBM binding z-score of `CGTAAAAGTTCAAGGTAACGTAACAGAAAGCAGC` for me?
*A* 4.73

*Q* Please give the measured PBM binding z-score for this sequence: `TCATATAGCTAAAAGGTGAAAGTCGGTGTGGTAA`
*A* 0.817

*Q* Any idea what PBM binding z-score was measured for `CCGACTGGGGAATAAGGTTACCATAAGCCAGCCC` ?
*A* 0.435

*Q* Give its PBM binding z-score value. Item: `TCTGCTAGGTCAGTCGGTCAGCTAACGAGCTGCC`
*A* 3.52

###

- System: THRa:RXRa (NR concentration 90 nM, RXRa partner concentration 90 nM)
- protocol description: PBM binding z-score (relative to random genomic background probes); higher = stronger binding; sequences stand for … in GC…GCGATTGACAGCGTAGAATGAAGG
Rule: PBM binding z-score under 2 gives Not met, otherwise Met.

*Q* Does PBM binding z-score meet or surpass 2 for `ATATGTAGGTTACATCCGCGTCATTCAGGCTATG` ?
*A* Not met

*Q* Check the entry `ACAGACAGGTGAGTGAAGGTAACTGAGCTGGACG` : does PBM binding z-score equal or exceed 2?
*A* Not met

*Q* Determine whether this sequence has PBM binding z-score no lower than 2: `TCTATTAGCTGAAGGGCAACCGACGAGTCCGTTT`
*A* Not met

*Q* Please indicate if the recorded PBM binding z-score for `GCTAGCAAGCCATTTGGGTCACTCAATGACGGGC` meets or exceeds 2.
*A* Not met

*Q* Please check the record `TGAATGAGGTTATAGGATCAGGGAACGTTGCAAA` and state if its PBM binding z-score is at or above 2.
*A* Met

*Q* Given the entry `ATCGAAAGGTTGAAGGTGAGTATACCCACCCGAA` , answer whether its PBM binding z-score meets or surpasses 2.
*A* Not met

*Q* Does the sequence `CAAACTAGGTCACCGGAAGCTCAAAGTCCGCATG` have recorded PBM binding z-score that is 2 or more?
*A* Met

*Q* Determine whether this sequence has PBM binding z-score no lower than 2: `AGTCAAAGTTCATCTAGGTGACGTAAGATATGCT`
*A* Met

*Q* Could you verify whether the entry `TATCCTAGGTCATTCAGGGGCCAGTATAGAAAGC` shows PBM binding z-score of no less than 2?
*A* Met

*Q* Tell me whether PBM binding z-score is at least 2 here: `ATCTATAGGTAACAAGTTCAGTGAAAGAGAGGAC`
*A* Not met

*Q* Please check the record `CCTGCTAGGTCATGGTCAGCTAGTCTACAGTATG` and state if its PBM binding z-score is at or above 2.
*A* Met

*Q* State whether the measured PBM binding z-score reaches 2, counting equality as reaching it, for `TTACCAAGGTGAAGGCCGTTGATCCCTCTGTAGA`
*A* Not met

*Q* Quick check: does `TAGCCTAGGTCGTGGGCCAGTATACCACGCGAAC` have PBM binding z-score greater than or equal to 2?
*A* Not met

*Q* Determine whether this sequence has PBM binding z-score no lower than 2: `TCTTGTAGATCAGCAGGATAAGAAAGCTGGCCAA`
*A* Not met

*Q* State whether the measured PBM binding z-score reaches 2, counting equality as reaching it, for `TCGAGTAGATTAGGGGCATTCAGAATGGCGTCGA`
*A* Not met

*Q* Kindly determine if PBM binding z-score recorded for `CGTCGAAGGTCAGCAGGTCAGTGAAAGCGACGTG` is above or exactly 2.
*A* Met

*Q* Determine whether measured PBM binding z-score meets or exceeds 2 for `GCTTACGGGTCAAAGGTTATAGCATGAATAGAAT`
*A* Met

*Q* Check the entry `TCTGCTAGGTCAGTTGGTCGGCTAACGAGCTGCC` : does PBM binding z-score equal or exceed 2?
*A* Not met

*Q* Reported PBM binding z-score reaches at least 2 for `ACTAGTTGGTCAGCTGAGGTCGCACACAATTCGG` ?
*A* Met

*Q* Hello, I need to know if `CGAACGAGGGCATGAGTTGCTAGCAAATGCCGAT` has measured PBM binding z-score not below 2. Thanks!
*A* Not met

*Q* For this sequence, is measured PBM binding z-score 2 or higher? `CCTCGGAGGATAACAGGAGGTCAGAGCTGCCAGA`
*A* Met

*Q* Please indicate if the recorded PBM binding z-score for `TCTTGTAGATCAGTAGAGGTTAAGAAAGTGCGCT` meets or exceeds 2.
*A* Not met

*Q* Check the entry `GCTGCTAGGTCGGGTTGGTCAGCTAACGGGTACG` : does PBM binding z-score equal or exceed 2?
*A* Not met

*Q* Does the reported PBM binding z-score for `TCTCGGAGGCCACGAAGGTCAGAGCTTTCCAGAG` fall at or above the 2 mark?
*A* Met

*Q* Hi team, for `TCATATAGGTAAAAGTGAAAGTCGAACGATATGA` , is the recorded PBM binding z-score at or above 2?
*A* Not met

*Q* Hello, I need to know if `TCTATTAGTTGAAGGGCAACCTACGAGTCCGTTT` has measured PBM binding z-score not below 2. Thanks!
*A* Not met

*Q* // inclusive: PBM binding z-score at least 2? input: `CAAACTCGGTCAAGAGGTCAAAGTCCGCTTCCCG`
*A* Met

*Q* hey, is PBM binding z-score for this one >= 2? `ATCTCTAGGTAAGATTCAGTTCAGTGAAGAACGC`
*A* Not met

*Q* Does the sequence `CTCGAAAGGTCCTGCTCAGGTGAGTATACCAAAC` have recorded PBM binding z-score that is 2 or more?
*A* Met

*Q* Check this sequence for PBM binding z-score at or above 2: `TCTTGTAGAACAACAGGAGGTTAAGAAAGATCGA`
*A* Not met

*Q* Kindly determine if PBM binding z-score recorded for `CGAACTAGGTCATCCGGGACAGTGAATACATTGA` is above or exactly 2.
*A* Met

*Q* Has `CAAACTAGGTCACCGGAAGGTCAGAGTCCGCATG` a recorded PBM binding z-score greater than or equal to 2?
*A* Met

*Q* Does the reported PBM binding z-score for `ATATGTAGGTAAAGGGTCATTCAGGTTGGTTCGC` fall at or above the 2 mark?
*A* Met

*Q* Determine whether measured PBM binding z-score meets or exceeds 2 for `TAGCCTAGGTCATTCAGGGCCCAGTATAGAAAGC`
*A* Met

*Q* Evaluate `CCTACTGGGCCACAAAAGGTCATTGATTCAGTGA` : PBM binding z-score at minimum 2?
*A* Met

*Q* Could you tell me if the measured PBM binding z-score of `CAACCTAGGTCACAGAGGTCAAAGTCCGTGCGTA` reaches 2 or more?
*A* Met

*Q* Is PBM binding z-score at least 2? Consider `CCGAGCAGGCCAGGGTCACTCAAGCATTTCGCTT`
*A* Met

*Q* Would you say `ACTAGTTGGTCAGCTGTGGTCACACACAATTCGG` shows PBM binding z-score at minimum 2?
*A* Not met

*Q* Is reported PBM binding z-score greater than or equal to 2 here: `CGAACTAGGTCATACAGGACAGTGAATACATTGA`
*A* Met

*Q* Check the entry `AATACAGGGTCACCGTAGGCCAGAGTACGCACAG` : does PBM binding z-score equal or exceed 2?
*A* Met

*Q* Please tell me: is the sequence `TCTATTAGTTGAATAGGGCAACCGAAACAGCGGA` at or over 2 in terms of PBM binding z-score?
*A* Not met

*Q* Could you verify whether the entry `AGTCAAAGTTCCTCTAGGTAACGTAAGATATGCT` shows PBM binding z-score of no less than 2?
*A* Not met

*Q* Reported PBM binding z-score at or above 2? `CCCGACAGGTGAGAAGGTAACTCAGCCTCGATTA`
*A* Not met

*Q* Textbook exercise: given the entry `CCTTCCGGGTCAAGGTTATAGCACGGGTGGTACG` , state whether its PBM binding z-score is greater than or equal to 2.
*A* Met

*Q* Record `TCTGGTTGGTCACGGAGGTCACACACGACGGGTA` ; criterion: PBM binding z-score no lower than 2. Met?
*A* Met

*Q* Does the reported PBM binding z-score for `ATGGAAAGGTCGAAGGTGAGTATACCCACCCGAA` fall at or above the 2 mark?
*A* Met

*Q* Exam item: decide whether the reported PBM binding z-score for `TCTGCTAGCTCAACGATGGTCAGCTAATCTGCTA` is at least 2.
*A* Not met

*Q* Kindly determine if PBM binding z-score recorded for `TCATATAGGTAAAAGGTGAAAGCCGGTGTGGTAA` is above or exactly 2.
*A* Not met

Source listed as the supplement of paper PMC6555819.
